The origin of these recorded values is ChEMBL document CHEMBL1255404.

Listing of entries alongside the reported MIC.
- Tested on: Enterobacter cloacae
- Experimental Protocol: Antimicrobial activity against Enterobacter cloacae isolate 2 expressing beta-lactamase OXA-48 and SHV-5 by Etest method
- Type: functional
Observation Type: MIC (µg/mL)

{"Compound": "C[C@@H](O)[C@H]1C(=O)N2C(C(=O)O)=C(S[C@@H]3CN[C@H](C(=O)N(C)C)C3)[C@H](C)[C@H]12 [MEROPENEM]", "Experimental Target": "Enterobacter cloacae", "Sign": "=", "Measurement": 0.75}
{"Compound": "CC1(C)S[C@@H]2[C@H](NC(=O)[C@H](N)c3ccc(O)cc3)C(=O)N2[C@H]1C(=O)O [AMOXICILLIN]", "Experimental Target": "Enterobacter cloacae", "Sign": ">", "Measurement": 512}
{"Compound": "CC(C)(O/N=C(\\C(=O)N[C@@H]1C(=O)N2C(C(=O)[O-])=C(C[n+]3ccccc3)CS[C@H]12)c1csc(N)n1)C(=O)O [CEFTAZIDIME]", "Experimental Target": "Enterobacter cloacae", "Sign": "=", "Measurement": 32}
{"Compound": "C[C@@H](O)[C@H]1C(=O)N2C(C(=O)O)=C(SCCNC=N)C[C@H]12 [IMIPENEM ANHYDROUS]", "Experimental Target": "Enterobacter cloacae", "Sign": "=", "Measurement": 0.75}
{"Compound": "CC1(C)S[C@@H]2[C@H](NC(=O)[C@H](C(=O)O)c3ccsc3)C(=O)N2[C@H]1C(=O)O [TICARCILLIN]", "Experimental Target": "Enterobacter cloacae", "Sign": ">", "Measurement": 512}
{"Compound": "CC(=O)OCC1=C(C(=O)O)N2C(=O)[C@@H](NC(=O)Cc3cccs3)[C@H]2SC1 [CEPHALOTHIN]", "Experimental Target": "Enterobacter cloacae", "Sign": ">", "Measurement": 512}
{"Compound": "CO[C@@]1(NC(=O)Cc2cccs2)C(=O)N2C(C(=O)O)=C(COC(N)=O)CS[C@@H]21 [CEFOXITIN]", "Experimental Target": "Enterobacter cloacae", "Sign": "=", "Measurement": 512}
